Test: log P determination by LC-MS in the acidic range
Type: physicochemical
Conditions: LC-MS in the acidic range
measure: log P (acid)

O=C(Nc1ccn(Cc2ccccn2)n1)c1cccnc1 | 0.57

[I] Cc1cc(NC(=O)c2cccnc2)nn1Cc1ccc(Cl)s1
[II] CCOC(=O)Cn1nc(NC(=O)c2cccnc2)cc1C
Input line: Compare I and II by numeric log P (acid) and name the larger one. Please reply using the label of the selected record.
Output line: I

[1] CCN(CC)C(=O)n1nc(NC(=O)c2cccnc2)cc1C
[2] Cc1cc(NC(=O)c2cccnc2)nn1Cc1ncccc1C#N
Input line: Field: lower log P (acid) | Options: 1 / 2 Please reply using the label of the selected record.
Output line: 2
(2: 1.08, 1: 2.31)

[P] Cc1ccc2oc(Cn3nc(NC(=O)c4cccnc4)cc3C)nc2c1
[Q] O=C(Nc1ccn(Cc2cccc(C(F)(F)F)c2)n1)c1ccc(Cl)nc1
Input line: Compare P and Q by numeric log P (acid) and name the larger one. Please reply using the label of the selected record.
Output line: Q
(Q: 2.82, P: 1.9)
